# MEASURED_ON: T1, human CD39 (Accession No. NM_001776.6) expressed on cells (human, UniProt P49961 1-510)
# T1 construct: whole, on cells; On Jurkat, 293T or SK-MEL28 cells; also called Jurkat/CD39; 293T/CD39
# T1 sequence (looked up): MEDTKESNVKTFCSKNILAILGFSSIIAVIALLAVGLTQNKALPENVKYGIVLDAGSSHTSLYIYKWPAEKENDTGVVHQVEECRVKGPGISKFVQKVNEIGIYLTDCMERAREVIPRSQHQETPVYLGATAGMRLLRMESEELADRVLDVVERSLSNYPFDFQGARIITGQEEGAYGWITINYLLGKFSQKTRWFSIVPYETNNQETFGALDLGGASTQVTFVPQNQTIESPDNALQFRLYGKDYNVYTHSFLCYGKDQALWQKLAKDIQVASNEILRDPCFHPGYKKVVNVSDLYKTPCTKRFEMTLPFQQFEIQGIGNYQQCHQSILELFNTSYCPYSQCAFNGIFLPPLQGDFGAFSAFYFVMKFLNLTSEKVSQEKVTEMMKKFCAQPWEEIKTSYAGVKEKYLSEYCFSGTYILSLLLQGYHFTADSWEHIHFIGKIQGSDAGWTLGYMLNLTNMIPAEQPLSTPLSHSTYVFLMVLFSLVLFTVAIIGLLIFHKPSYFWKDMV
# ASSAY_SUMMARY: flow cytometry, 293T/TIM-3 + CD39 cells, KD from MFI
READOUT: Kd (nM)

BINDER | READOUT | QUANTITATIVE_RESULT
T86_LA (antibody, V domains shown, also called IgG1-LALA antibody of anti-CD39 antibody T86) VH: QIQLVQSGPELKKPGETVKISCEASGYTFINYGMNWVKQAPGKGLKWMGWINTYTGEPTYADDFKGRFAFSLETSANTAYLQINNLKNEDTATYFCARKGYYGYPNYYAMDYWGQGTSVTVSS VL: DIVMTQSQKFMSTSVGDRVSITCKASQNVGTAVAWYQQKPGQSPKLLIYSASNRYTGVPDRFTGSGSGTDFTLTISNMQSEDLADYFCQQYSSYPITFGTGTKLEIK | Kd | 5.09
